Target chain: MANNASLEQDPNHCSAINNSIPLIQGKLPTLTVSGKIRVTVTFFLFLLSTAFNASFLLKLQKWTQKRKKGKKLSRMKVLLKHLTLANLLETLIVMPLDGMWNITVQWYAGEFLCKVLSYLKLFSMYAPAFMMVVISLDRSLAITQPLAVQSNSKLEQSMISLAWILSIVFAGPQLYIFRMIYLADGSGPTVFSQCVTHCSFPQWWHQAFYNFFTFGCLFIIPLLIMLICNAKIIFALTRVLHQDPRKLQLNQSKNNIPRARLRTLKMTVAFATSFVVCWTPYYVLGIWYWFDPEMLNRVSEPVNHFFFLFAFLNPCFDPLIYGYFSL
pKi: −log10 of the molar value.
Decide using pKi: a value greater than or equal to 8 is TRUE, a smaller one is FALSE.

The following compounds have reported results that may help.
compound: COc1cc2c(c(C)c1Oc1ccc(C(=O)NNc3cc(C)c4c(C)nn(C)c4n3)o1)C(C)(C)CCC2(C)C
groupLabel: FALSE

compound: Cc1cc2c(cc1Oc1ccc(C(=O)NNc3ccc4ccccc4n3)o1)C(C)(C)CC(C)C2(C)C (stereo not shown)
groupLabel: TRUE

compound: Cc1cc(NNC(=O)c2ccc(Oc3ccc4c(c3)C(C)(C)CCC4(C)C)o2)nc2c1c(C)nn2C
groupLabel: FALSE

Exercise: Is pKi at least 8? Consider Cc1ccc(C2CCCCC2)cc1Cc1ccc(C(=O)NNc2cc(C)c3c(C)nn(C)c3n2)o1
Solution: FALSE

* * *

experimentalDetails: In vitro metabolism: disappearance of parent compound in liver microsomes
Format: in vitro ADME
conditionInfo: human liver microsomes; 5 uM compound, 0.5 mg/ml microsomal protein, 2 mM NADPH, 30 minutes at 37° C.
I'd be grateful if you could share measured Huma % p. 30′ for these entries.
Numbers only, in %.

Here are 2 molecules together with their reported answers.
molecularString: Cc1cc2c(cc1Cc1ccc(C(=O)NNc3ccc4ccccc4n3)o1)C(C)(C)CCC2(C)C
readingUnit: %
Huma % p. 30′: 52
--
molecularString: Cc1ccc(C(C)(C)C)cc1Cc1ccc(C(=O)NNc2cc(C)c3c(C)nn(C)c3n2)o1
readingUnit: %
Huma % p. 30′: 57

Let us move to another entry and its Huma % p. 30′.
Exercise: What measured Huma % p. 30′ goes with COc1cc2c(cc1Oc1ccc(C(=O)NNc3cc(C)c4c(C)nn(C)c4n3)o1)C(C)(C)CC2=O ?
Solution: 58

* * *

experimentalDetails: In vitro metabolism: disappearance of parent compound in liver microsomes
Assay type: in vitro ADME
conditionInfo: human liver microsomes; 5 uM compound, 0.5 mg/ml microsomal protein, 2 mM NADPH, 30 minutes at 37° C.
Please respond with reported Huma % p. 30′ for every item in the list.

compound: COc1cc2c(cc1Cc1ccc(C(=O)NNc3cc(C)c4c(C)nn(C)c4n3)o1)C(C)(C)CCC2(C)C [Example C2]
Huma % p. 30′: 40%
--
compound: Cc1cc2c(cc1Oc1ccc(C(=O)NNc3cc(C)c4c(C)nn(C)c4n3)o1)C(C)(C)CCC2(C)C [Example F2]
Huma % p. 30′: 65%
--
compound: CC(=O)c1c(NNC(=O)c2ccc(Cc3cc4c(cc3C)C(C)(C)OC4(C)C)o2)nc2c(c(C)nn2C)c1C [Example E2]
Huma % p. 30′: 30%

Could I get Huma % p. 30′ for every one of these entries?
1. Cc1cc2c(cc1Cc1ccc(C(=O)NNc3cc(C)c4c(C)nn(C)c4n3)o1)C(C)(C)OC2(C)C [Example E1]
2. Cc1cc2c(cc1Cc1ccc(C(=O)NNc3nc(N)nc(C4CC4)n3)o1)C(C)(C)CCC2(C)C [Example C6]
3. Cc1cc(Cl)c(C(C)C)c(Oc2ccc(C(=O)NNc3cc(C)c4c(C)nn(C)c4n3)o2)c1 [Example I3]
4. Cc1cc2c(cc1Cc1ccc(C(=O)NNc3ccc(C(F)(F)F)cn3)o1)C(C)(C)CCC2(C)C [Example C9]

Solution:
1: 43%; 2: 75%; 3: 43%; 4: 61%

* * *

experimentalDetails: In vitro metabolism: disappearance of parent compound in liver microsomes (female rat)
Format: in vitro ADME
conditionInfo: 5 uM compound, 0.5 mg/ml microsomal protein, 2 mM NADPH, 30 minutes at 37° C.
observable: Fem. t % rem. 30′ (%)
Answers are plain numbers, in %.

Some solved cases for reference:
compound: Cc1cc2c(cc1Cc1ccc(C(=O)NNc3ccc(C(F)(F)F)cn3)o1)C(C)(C)CCC2(C)C [Example C9]
Fem. t % rem. 30′ (%): 14
--
compound: Cc1cc2c(cc1Cc1ccc(C(=O)NNc3cc(C)c4c(C)nn(C)c4n3)o1)C(C)(C)OC2(C)C [Example E1]
Fem. t % rem. 30′ (%): 27
--
compound: Cc1ccc(C(C)(C)C)cc1Cc1ccc(C(=O)NNc2cc(C)c3c(C)nn(C)c3n2)o1 [Example J7]
Fem. t % rem. 30′ (%): 9
--
compound: Cc1cc2c(cc1Oc1ccc(C(=O)NNc3cc(C)c4c(C)nn(C)c4n3)o1)C(C)(C)CCC2(C)C [Example F2]
Fem. t % rem. 30′ (%): 22

# ---- query compound ----
Exercise: Fill blank: measured Fem. t % rem. 30′ of the compound COc1cc2c(cc1Cc1ccc(C(=O)NNc3cc(C)c4c(C)nn(C)c4n3)o1)C(C)(C)CCC2(C)C [Example C2] is ____.
Solution: 18

* * *

What Male t % p. 30′ was measured for each of the following?
experimentalDetails: In vitro metabolism: disappearance of parent compound in liver microsomes (male rat)
Assay type: in vitro ADME
conditionInfo: 5 uM compound, 0.5 mg/ml microsomal protein, 2 mM NADPH, 30 minutes at 37° C.
One number for each entry, in %.

molecule: Cc1ccc(C(C)(C)C)cc1Cc1ccc(C(=O)NNc2cc(C)c3c(C)nn(C)c3n2)o1
Male t % p. 30′ (%): 89

For each of the molecules below, note its Male t % p. 30′.
1. Cc1cc2c(cc1Oc1ccc(C(=O)NNc3cc(C)c4c(C)nn(C)c4n3)o1)C(C)(C)CCC2(C)C
2. COc1cc2c(cc1Cc1ccc(C(=O)NNc3cc(C)c4c(C)nn(C)c4n3)o1)C(C)(C)CCC2(C)C
3. Cc1cc2c(cc1Cc1ccc(C(=O)NNc3cc(C)c4c(C)nn(C)c4n3)o1)C(C)(C)OC2(C)C [Example E1]
4. Cc1cc2c(cc1Cc1ccc(C(=O)NNc3ccc(C(F)(F)F)cn3)o1)C(C)(C)CCC2(C)C
5. Cc1cc2c(cc1Cc1ccc(C(=O)NNc3nc(N)nc(C4CC4)n3)o1)C(C)(C)CCC2(C)C
6. Cc1cc2c(cc1Cc1ccc(C(=O)NNc3cc(C)c4c(C)nn(C)c4n3)o1)C(C)(C)CCC2(C)C

Solution:
1. 93
2. 97
3. 96
4. 94
5. 95
6. 99

* * *

targetOrSystem: mouse GnRH receptors (Mus musculus, UniProt Q01776)
Sequence (Q01776 1-327): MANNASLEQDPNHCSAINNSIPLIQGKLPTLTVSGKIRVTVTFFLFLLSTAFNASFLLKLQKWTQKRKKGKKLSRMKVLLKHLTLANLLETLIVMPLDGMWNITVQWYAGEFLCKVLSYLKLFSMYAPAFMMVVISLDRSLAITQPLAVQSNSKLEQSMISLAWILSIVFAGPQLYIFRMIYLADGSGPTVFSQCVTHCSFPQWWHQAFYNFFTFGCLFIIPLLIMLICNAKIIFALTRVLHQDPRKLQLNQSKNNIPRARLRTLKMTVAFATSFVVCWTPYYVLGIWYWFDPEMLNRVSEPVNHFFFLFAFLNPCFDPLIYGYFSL
Task for the reader: assign each of the following molecules its reported pKi.
Numbers only, as −log10 of the molar value.

molecule: Cc1cc2c(cc1Oc1oc(C(=O)NNc3cc(C)c4c(C)nn(C)c4n3)cc1Br)C(C)(C)CCC2(C)C [Example F3]
targetOrSystem: mouse GnRH receptors (Mus musculus, UniProt Q01776)
pKi: 6.87
--
molecule: Cc1ccc(C(C)(C)C)cc1Oc1ccc(C(=O)NNc2ccc3ccccc3n2)o1 [Example I17]
targetOrSystem: mouse GnRH receptors (Mus musculus, UniProt Q01776)
pKi: 7.37
--
molecule: COc1c(Oc2ccc(C(=O)NNc3cc(C)c4c(C)nn(C)c4n3)o2)c(C)cc2c1C(C)(C)CCC2(C)C [Example I28]
targetOrSystem: mouse GnRH receptors (Mus musculus, UniProt Q01776)
pKi: 8.59

API: the following record is the query input.
Exercise: Value lookup for pKi; key = Cc1cc2c(cc1Cc1ccc(C(=O)NNc3ccc(C(F)(F)F)cn3)o1)C(C)(C)CCC2(C)C [Example C9]
Solution: 7.52

* * *

targetOrSystem: mouse GnRH receptors (Mus musculus)
Sequence (Q01776 1-327): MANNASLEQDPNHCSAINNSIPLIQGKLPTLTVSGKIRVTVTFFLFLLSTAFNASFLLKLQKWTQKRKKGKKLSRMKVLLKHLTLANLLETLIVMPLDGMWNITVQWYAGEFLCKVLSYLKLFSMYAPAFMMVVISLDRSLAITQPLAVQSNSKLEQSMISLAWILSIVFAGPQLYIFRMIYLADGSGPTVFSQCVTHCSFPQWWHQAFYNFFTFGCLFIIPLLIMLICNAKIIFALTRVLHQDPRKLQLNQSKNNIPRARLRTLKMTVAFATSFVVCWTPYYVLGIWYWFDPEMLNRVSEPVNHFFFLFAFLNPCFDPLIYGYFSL
Mark fulfilled only for Ki values smaller than 100 nM; exact matches and larger values are not fulfilled.

molecule: Cc1cc(C)c(-c2ccccc2)cc1Cc1ccc(C(=O)NNc2cc(C)c3c(C)nn(C)c3n2)o1 [Example J18]
targetOrSystem: mouse GnRH receptors (Mus musculus)
groupLabel: not fulfilled
//
molecule: Cc1cc2c(c(C)c1Oc1ccc(C(=O)NNc3cc(C)c4c(C)nn(C)c4n3)o1)C(C)(C)CCC2(C)C [Example I9]
targetOrSystem: mouse GnRH receptors (Mus musculus)
groupLabel: fulfilled
//
molecule: Cc1cc(C)c(C)c(Cc2ccc(C(=O)NNc3cc(C)c4c(C)nn(C)c4n3)o2)c1C [Example J12]
targetOrSystem: mouse GnRH receptors (Mus musculus)
groupLabel: not fulfilled

Exercise: Dear reviewer, please state whether Cc1cc2c(c(Br)c1Oc1ccc(C(=O)NNc3cc(C)c4c(C)nn(C)c4n3)o1)C(C)(C)CCC2(C)C [Example I8] has Ki strictly beneath 100 nM.
Solution: fulfilled

Exercise: And then Cc1cc(NNC(=O)c2ccc(Cc3cc4c(cc3Cl)C(C)(C)CCC4(C)C)o2)nc2c1c(C)nn2C [Example C4] , what is it?
Solution: fulfilled

Exercise: // query: Cc1cc(NNC(=O)c2ccc(Oc3cc(C(C)(C)C)c(Br)cc3Br)o2)nc2c1c(C)nn2C [Example I12]
Solution: not fulfilled

Exercise: Now this one: Cc1cc(C(F)(F)F)cc(NNC(=O)c2ccc(Cc3cc4c(cc3C)C(C)(C)CCC4(C)C)o2)n1 [Example C13]
Solution: not fulfilled
